# Tested on: TK-10 renal
# Assay: NCI-60 one-dose screen, 48 h (100 = growth as untreated, 0 = no growth, -100 = all killed)
# Cond: 10 µM
About 83,000 compounds went through this panel and 20% of them were active in at least one assay; those are over-represented in the sample as a whole.
Outcome Measure: growth (%)

{"columns": ["Structure", "Value Reported"],
 "data": [
  ["Cc1cc(N=C2NC(=O)/C(=C/c3cc(C(C)(C)C)c(O)c(C(C)(C)C)c3)S2)n[nH]1", -11.6],
  ["COc1cc2oc(-c3cccc(C(=O)Nc4ccc(Cl)cc4)c3)cc(=O)c2c(OCCN)c1OC", -91.2],
  ["COc1ccc(C(=O)COc2ccc(NC(=O)Nc3ccc(Cl)c(C(F)(F)F)c3)cc2)cc1", 46.8],
  ["C#C[C@]1(O)CC[C@H]2[C@@H]3CC=C4c5sc(Nc6ccc(C(F)(F)F)cn6)nc5CC[C@]4(C)[C@H]3CC[C@@]21C", 12.9]
]}

* * *

# Tested on: MDA-MB-468 breast
# Assay: NCI-60 one-dose screen, 48 h (100 = growth as untreated, 0 = no growth, -100 = all killed)
# Cond: 10 µM unless noted
This is part of a sample that, as a whole, favours compounds with a hit. Of some 83,000 tested, about 20% had one in any assay.

{"columns": ["Compound", "growth (%)"],
 "data": [
  ["OCC1OC(n2cnc3c(=S)nc[nH]c32)C(O)C1O (stereo unspecified)", -6.42],
  ["CC1(c2ccc(Br)cc2)NC(=O)NC1=O (stereo unspecified)", 110],
  ["Cc1cc2nc3c4cc(N)ccc4n(CCN(C)C)c3nc2cc1C", -5.6],
  ["O=C1/C(=C\\c2ccccc2)CN(C(=O)c2ccccc2F)C/C1=C\\c1ccccc1", -72.4],
  ["COc1ccc(NC(=O)c2sc3nc(C)c(C(=O)/C=C/c4ccccc4)cc3c2N)cc1", 44.4],
  ["C#CCOc1ccc(C(Nc2ccc(Cl)cc2)c2nnnn2C2CCCCC2)cc1 (stereo unspecified)", 87.1]
]}

* * *

Below, each entry is listed alongside its reported growth.
# Tested on: MDA-MB-468 breast
# Assay: NCI-60 one-dose screen, 48 h (100 = growth as untreated, 0 = no growth, -100 = all killed)
# Cond: 10 µM unless noted
About 83,000 compounds went through this panel and 20% of them were active in at least one assay; those are over-represented in the sample as a whole. Active and inactive are the calls of the source. How the source made its calls: active means growth percent below 10; inactive means the rest.

{"columns": ["Structure", "growth"],
 "data": [
  ["O=C1COCCN1c1ccc(NCc2cn(C(=O)c3ccc(Cl)cc3)c3ccccc23)cc1", "-66.6% (active)"],
  ["COc1ccc(-c2cncnc2N)cc1OC", "116% (inactive)"],
  ["CCCCCCNC(=O)Oc1ccc(/C(=C(/C)c2ccc(OC)cc2)c2ccc(OCCN3CCCCCC3)cc2)cc1", "1.03% (active)"],
  ["Nc1ncc(C#Cc2cncc(NC(=O)c3cccc(C(F)(F)F)c3)c2)c2cccnc12", "92.5% (inactive)"],
  ["CCCOS(=O)(=O)c1ccccc1", "108% (inactive)"],
  ["Fc1ccc(Nc2ncnc3ccc(-c4cnc5[nH]ccc5c4)cc23)cc1Cl", "-29.7% (active)"],
  ["C=C[C@]1(C)C=C2CC[C@@H]3C(C)(C)C(=O)CC[C@@]3(C)[C@@H]2CC1", "110% (inactive)"],
  ["C[C@H]1[C@H](C)CC[C@]2(C(=O)O)CC[C@]3(C)C(=CC[C@@H]4[C@@]5(C)C/C(=C/c6ccco6)C(=O)C(C)(C)[C@@H]5CC[C@]43C)[C@H]12", "-38% [100 µM] (active)"],
  ["C#Cc1ccc(NC(=O)c2ccc(/C=C/C(=O)c3nccn3C)cc2)cc1", "-54.6% (active)"]
]}

* * *

# System: MDA-MB-468 breast
# Assay: NCI-60 one-dose screen, 48 h
# Cond: 10 µM unless noted
About 83,000 compounds went through this panel and 20% of them were active in at least one assay; those are over-represented in the sample as a whole. The source made the active and inactive calls. How the source made its calls: active means growth percent below 10; inactive means the rest.
Classes used: Y for active, N for inactive

{"columns": ["Compound", "Assigned Class"],
 "data": [
  ["C=C1C(=O)O[C@H]2[C@H]1CC/C(COC(=O)CCCCCC(=O)OC/C1=C/CC[C@@]3(C)O[C@H]3[C@H]3OC(=O)C(=C)[C@@H]3CC1)=C\\CC[C@@]1(C)O[C@@H]21", "Y"],
  ["CCCC(=O)OCC1OC(n2cnc3c(=S)nc(N)[nH]c32)C(OC(=O)CCC)C1OC(=O)CCC (centres undefined)", "N"],
  ["COc1ccc(-c2nc(SCCC(C)C)nc(N/N=C\\c3ccc(O)cc3)c2C#N)cc1", "N"],
  ["O=C(Nc1ccccc1Cl)c1cnc2ccc(C3CCNCC3)cn12", "N"]
]}

* * *

# System: MDA-MB-468 breast
# Assay: NCI-60 one-dose screen, 48 h
# Cond: 10 µM unless noted
This is part of a sample that, as a whole, favours compounds with a hit. Of some 83,000 tested, about 20% had one in any assay. Active and inactive are the calls of the source. The calls were made as follows: active = growth percent below 10; inactive = the rest.
Classes used: label 1 = active, label 0 = inactive

{"columns": ["Compound", "Assigned Class"],
 "data": [
  ["CCN(CC)CCCC(C)NCc1ccccc1 (stereo not given)", "label 0"],
  ["Clc1ccc(-c2cc(-c3ccccc3)nc(NCCNc3ccnc4cc(Cl)ccc34)n2)cc1", "label 1"],
  ["c1ccc(-c2cccc(-c3ccccn3)n2)nc1", "label 1"],
  ["COc1ccc2c(c1)c(-c1noc(C(=O)c3cn(C)c4ncc(Br)cc34)n1)cn2C", "label 0"],
  ["CCOC(=O)C(=O)C(C(=O)OCC)c1ccccc1 (stereo not given)", "label 0"],
  ["CC1(C)C(N)=Nc2cc(OCCCCN3Cc4ccccc4C3)c(OCC3CC3)cc21", "label 0"],
  ["CC1CCC2(OC1)OC1CC3C4CC=C5CC(O)CCC5(C)C4CCC3(C)C1C2C (stereo not given)", "label 0"],
  ["NC1=C(c2nn[nH]n2)C(c2ccccc2Cl)c2ccc3ccccc3c2O1 (stereo not given)", "label 0"],
  ["O=[N+]([O-])c1ccc2[nH]cc(-c3c4ccccc4cc4[nH]c5ccc([N+](=O)[O-])cc5c34)c2c1", "label 0"],
  ["COc1ccccc1-n1cc(C#N)c(N)c1C(=O)c1ccc(C)cc1", "label 0"]
]}

* * *

# System: MDA-MB-231 breast
# Assay: NCI-60 one-dose screen, 48 h (100 = growth as untreated, 0 = no growth, -100 = all killed)
# Cond: 10 µM
The panel holds about 83,000 compounds, 20% with a hit somewhere; the sample as a whole holds those more often.
# note: exactly 50% is not below, so it is no; use yes for growth strictly under it

{"columns": ["Compound", "Assigned Class"],
 "data": [
  ["Cc1cc(N=C2NC(=O)/C(=C/c3cc(C(C)(C)C)c(O)c(C(C)(C)C)c3)S2)n[nH]1", "yes"],
  ["COc1ccc(C2OC[C@@]3(C)C4CC[C@]5(C)C(CC=C6C7CC(C)(C)CC[C@]7(C(=O)O)CC[C@]65C)[C@@]4(C)C[C@@H](O)[C@@H]3O2)cc1 (some centres undefined)", "no"],
  ["Cn1cc(-c2nnc(N)nc2-c2c[nH]c3ccccc23)c2cc(Br)cnc21", "no"],
  ["O=C(CSc1nc2ccccc2c(=O)n1-c1ccc(Cl)cc1)Nc1ccc(-c2nc3ccccc3[nH]2)cc1", "yes"],
  ["COc1ccc(NCc2cn(-c3ccc(C(=O)O)cc3)nc2-c2ccc(F)cc2)cc1C(F)(F)F", "no"],
  ["COc1cc(-c2nc3ccc(C)cc3[nH]2)ccc1OCc1nnc(-c2ccccc2Br)o1", "no"],
  ["O=C(c1ccc(F)cc1)C(c1c[nH]c2ccccc12)c1c[nH]c2ccccc12", "no"],
  ["O=C1S/C(=C\\c2ccc([N+](=O)[O-])cc2)C(=O)N1CCN1CCCCC1", "no"],
  ["CCOC(=O)c1ccc(NC(=O)CSC(CC(=O)c2sc(Nc3ccccn3)nc2C)c2ccccc2F)cc1 (centres undefined)", "yes"],
  ["COc1ccc(OC)c(-n2cc(C#N)c(N)c2C(=O)c2ccc(Cl)cc2Cl)c1", "no"],
  ["COc1ccc(Cc2nn(CC(=O)N/N=C/c3ccc(Br)cc3)c(=O)c3c(C)noc23)cc1", "yes"],
  ["O=C(CN1CCN(c2ncnc3c2cnn3-c2ccccc2)CC1)Nc1ccc(Cl)cc1", "no"],
  ["COc1ccc(C(=O)COc2ccc(NC(=O)Nc3ccccc3)cc2)cc1", "no"],
  ["Cc1ccc(COc2ccc(NC(=O)Nc3ccc(Cl)c(C(F)(F)F)c3)cc2)cc1", "no"],
  ["Cc1ccc2c(c1)C(=O)/C(=C/c1c[nH]c3ccccc13)S2", "no"],
  ["COc1cccc(C(=O)CSc2nc(-c3ccc(OCc4ccccc4)c(OC)c3)c(C#N)c(=O)[nH]2)c1", "no"],
  ["Fc1ccc(/C=C/c2nc3ccccc3n3c(-c4ccc(Cl)cc4)nnc23)cc1", "no"],
  ["COc1ccccc1-n1cc(C#N)c(N)c1C(=O)c1ccc(Cl)cc1Cl", "yes"],
  ["COc1cc2oc(-c3cccc(C(=O)Nc4ccc(Cl)cc4)c3)cc(=O)c2c(OCCNC(=O)[C@@H](N)CO)c1OC", "yes"]
]}
